Let's go through some log10 of IC50 measurements on human full length PDE3A (Homo sapiens (Human), UniProt Q14432) together.
Sequence (Q14432 whole entry): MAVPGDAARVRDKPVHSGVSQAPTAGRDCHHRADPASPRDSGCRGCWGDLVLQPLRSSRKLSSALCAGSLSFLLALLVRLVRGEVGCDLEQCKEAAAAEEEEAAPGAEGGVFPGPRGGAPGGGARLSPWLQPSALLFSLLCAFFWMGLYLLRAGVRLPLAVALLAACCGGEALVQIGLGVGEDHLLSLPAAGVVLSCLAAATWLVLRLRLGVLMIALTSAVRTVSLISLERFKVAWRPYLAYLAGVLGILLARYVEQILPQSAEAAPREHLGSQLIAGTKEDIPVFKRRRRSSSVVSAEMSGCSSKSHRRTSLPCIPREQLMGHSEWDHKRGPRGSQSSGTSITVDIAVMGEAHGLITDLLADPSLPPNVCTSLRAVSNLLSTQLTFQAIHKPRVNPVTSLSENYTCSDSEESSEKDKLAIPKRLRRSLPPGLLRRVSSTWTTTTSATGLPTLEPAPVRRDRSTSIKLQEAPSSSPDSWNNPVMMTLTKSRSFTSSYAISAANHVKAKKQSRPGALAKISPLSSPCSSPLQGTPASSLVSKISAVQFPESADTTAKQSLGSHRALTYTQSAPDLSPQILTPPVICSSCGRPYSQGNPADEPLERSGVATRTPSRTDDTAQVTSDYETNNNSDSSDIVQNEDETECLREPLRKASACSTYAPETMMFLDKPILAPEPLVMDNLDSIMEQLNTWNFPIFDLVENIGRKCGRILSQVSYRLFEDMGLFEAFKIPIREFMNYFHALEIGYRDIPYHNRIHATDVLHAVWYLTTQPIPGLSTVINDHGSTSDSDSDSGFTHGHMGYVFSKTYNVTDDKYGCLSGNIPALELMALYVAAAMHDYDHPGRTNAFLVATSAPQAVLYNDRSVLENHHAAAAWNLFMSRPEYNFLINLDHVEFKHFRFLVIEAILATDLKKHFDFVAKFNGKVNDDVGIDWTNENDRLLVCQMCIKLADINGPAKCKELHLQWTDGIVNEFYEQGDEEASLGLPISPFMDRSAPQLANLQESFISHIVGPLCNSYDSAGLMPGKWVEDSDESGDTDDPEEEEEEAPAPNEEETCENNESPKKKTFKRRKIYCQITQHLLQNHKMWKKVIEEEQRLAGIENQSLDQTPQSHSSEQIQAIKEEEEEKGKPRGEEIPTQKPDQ
Short version: log10 scale, IC50, nM.

Query string: Recall the recorded log10 of IC50 for O=C1NN=C(c2ccc(-c3ccc(F)cc3)c(C(F)F)c2)CO1 [Example 198] with human full length PDE3A (Homo sapiens (Human), UniProt Q14432) and state it.
Result string: 2.23

Query string: Recall the recorded log10 of IC50 for Nc1cccc(-c2ccc(C3=NNC(=O)OC3)cc2F)c1 [Example 91] with human full length PDE3A (Homo sapiens (Human), UniProt Q14432) and state it.
Result string: 1.83

Query string: Recall the recorded log10 of IC50 for C[C@@H]1OC(=O)NN=C1c1ccc(N2CCOCC2)c(C(F)(F)F)c1 [Example 120] with human full length PDE3A (Homo sapiens (Human), UniProt Q14432) and state it.
Result string: 0.78

Query string: Recall the recorded log10 of IC50 for C[C@@H]1OC(=O)NN=C1c1ccc(Cl)c(C(F)(F)F)c1 [Intermediate 74] with human full length PDE3A (Homo sapiens (Human), UniProt Q14432) and state it.
Result string: 1.53

Query string: Recall the recorded log10 of IC50 for O=C1NN=C(c2ccc(-c3ccc(F)cc3F)c(F)c2)CO1 [Example 111] with human full length PDE3A (Homo sapiens (Human), UniProt Q14432) and state it.
Result string: 1.86

====

Test system: IGR-1 cells
Assay: Assay 1 cell proliferation measurement, IGR-1
Format: cell-based
Details: Homo sapiens, Melanoma, read-out: Anti-proliferation IC50 [nM] IGR-1
// IC50 lookup, one value per entry
Give just the numeric value; nM need not be written.

O=C1NN=C(c2ccc(-c3ccc(F)cc3)c(C(F)(F)F)c2)CO1 [Example 3]: 99

Moving on to another compound below.
Query string: Looking for the measured IC50 of O=C1NN=C(c2ccc(N3CCC(F)(F)CC3)c(F)c2)CO1 [Example 1] , can you help?
Result string: 89

====

Biological target: human full length PDE3A (Homo sapiens (Human))
// NB: equality with 200 nM counts as criterion not met; only IC50 strictly below is criterion met

Reference set, count: 6
CCC1(O)CCN(c2ccc(C3=NNC(=O)OC3)cc2C(F)(F)F)CC1: criterion met
Cc1ccc(-c2ccc(C3=NNC(=O)OC3)cc2OC(F)(F)F)cn1: criterion met
COc1cc(-c2ccc(C3=NNC(=O)OC3)cc2F)ccn1: criterion met
CN(c1ccc(C2=NNC(=O)OC2)cc1C(F)(F)F)C1CCCC1: criterion not met
Cc1ccc(-c2ccc(C3=NNC(=O)OC3)cc2C(F)(F)F)cc1N: criterion met
C[C@@H](CCO)Nc1ccc(C2=NNC(=O)OC2)cc1C(F)(F)F: criterion met

Query string: Would you kindly verify if IC50 of `Cc1ccc(-c2ccc(C3=NNC(=O)OC3)cc2C(F)(F)F)nc1` is strictly less than 200 nM?
Result string: criterion not met

Query string: Would you kindly verify if IC50 of `Nc1cc(-c2ccc(C3=NNC(=O)OC3)cc2C(F)(F)F)ccc1Cl` is strictly less than 200 nM?
Result string: criterion met

Query string: Would you kindly verify if IC50 of `Cn1ncc2ccc(-c3ccc(C4=NNC(=O)OC4)cc3C(F)(F)F)cc21` is strictly less than 200 nM?
Result string: criterion met

Query string: Would you kindly verify if IC50 of `C[C@@H]1OC(=O)NN=C1c1ccc(-c2ccccc2C#N)c(C(F)(F)F)c1` is strictly less than 200 nM?
Result string: criterion not met

Query string: Would you kindly verify if IC50 of `O=C1NN=C(c2ccc(C3=CCCC3)c(F)c2)CO1` is strictly less than 200 nM?
Result string: criterion met

Query string: Would you kindly verify if IC50 of `O=C1NN=C(c2ccc(CN3CCOCC3)c(C(F)(F)F)c2)CO1` is strictly less than 200 nM?
Result string: criterion not met

Query string: Would you kindly verify if IC50 of O=C1NN=C(c2ccc(N3CC4CC4C3)c(C(F)(F)F)c2)CO1 (stereo not shown) is strictly less than 200 nM?
Result string: criterion met

Query string: Would you kindly verify if IC50 of C[C@@H]1OC(=O)NN=C1c1ccc(F)c(C(F)(F)F)c1 [Intermediate 75] is strictly less than 200 nM?
Result string: criterion not met

Query string: Would you kindly verify if IC50 of `Cc1nc2cc(-c3ccc(C4=NNC(=O)OC4)cc3C(F)(F)F)ccc2[nH]1` is strictly less than 200 nM?
Result string: criterion met

Query string: Would you kindly verify if IC50 of CC(Nc1ccc(C2=NNC(=O)OC2)cc1C(F)(F)F)C1CC1 (racemic) is strictly less than 200 nM?
Result string: criterion met

Query string: Would you kindly verify if IC50 of `CCc1ccccc1-c1ccc(C2=NNC(=O)OC2)cc1F` is strictly less than 200 nM?
Result string: criterion met

Query string: Would you kindly verify if IC50 of `C[C@@H]1OC(=O)NN=C1c1ccc(-c2ccc(F)cc2F)c(C(F)(F)F)c1` is strictly less than 200 nM?
Result string: criterion met
